Data provenance is patent US12606541B2.

Answer each item with its documented AC50.
STUDY_SYSTEM: His6-TEV-PPARγ-(234-505) (Homo sapiens)
Construct: The His6-TEV-PPARγ-(234-505) protein for assay was expressed and purified; TEV cleavage site (N); made in house
Sequence (P37231 234-505): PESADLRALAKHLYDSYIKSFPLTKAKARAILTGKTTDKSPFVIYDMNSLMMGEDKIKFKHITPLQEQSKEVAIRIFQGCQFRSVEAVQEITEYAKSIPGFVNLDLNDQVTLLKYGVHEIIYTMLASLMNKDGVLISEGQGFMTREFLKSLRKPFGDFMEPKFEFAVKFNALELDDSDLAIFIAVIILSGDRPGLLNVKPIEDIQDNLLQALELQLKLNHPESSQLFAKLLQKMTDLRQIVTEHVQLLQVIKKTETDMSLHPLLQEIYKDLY
EXPERIMENTAL_DETAILS: TR-FRET Assay to Measure Co-R Peptide Recruitment to PPARγ
Assay type: biochemical
PARTICULARS: Co-R peptide (SMRT-ID2) recruitment; top final concentration 20 μM; read-out: TR-FRET i-Ag; AC50
Experimental: TR-FRET Assay to Measure Co—R Peptide Recruitment to PPARγ The 2× detection solution contained anti-6×His-Terbium antibody (CisBio) and FITC labeled Co—R peptide (SMRT-ID2 from New England Peptide) at final concentrations of 5 and 200 nM respectively. In these assay plates, the positive control in column 24 contained 500 nM (final) T0070907 and the negative control in column 23 contained an identical volume of DMSO. […] Experiments were performed in triplicate and analyzed in GraphPad Prism 7.
Quick reminder: number only, in nM, skip the unit.

Would you kindly share the measured AC50 for COc1cc(-c2cc(C(=O)N3[C@@H]4CC[C@H]3C[C@H](C(=O)NCc3cccc(Cl)c3)C4)n[nH]2)c(F)cn1 ?
11.5

Would you kindly share the measured AC50 for COc1cc(-c2cc(C(=O)N3CC[C@H](C(=O)NCc4ncc(N5CC(C)NC(C)C5)cn4)CC34CC4)n[nH]2)c(F)cn1 (stereo partly shown) ?
508

Would you kindly share the measured AC50 for COc1cc(-c2cc(C(=O)N3CC[C@@H](C(=O)NCc4cccc(Cl)c4)C[C@H]3C)n[nH]2)c(Cl)cn1 ?
26.7

Would you kindly share the measured AC50 for COc1cc(-c2cc(C(=O)N3CCC(C(=O)NCc4ccc5[nH]ccc5c4)CC3)n[nH]2)c(Cl)cn1 ?
11

---

STUDY_SYSTEM: His6-TEV-PPARγ-(234-505) (Homo sapiens)
Construct: The His6-TEV-PPARγ-(234-505) protein for assay was expressed and purified; TEV cleavage site (N); made in house
Sequence (P37231 234-505): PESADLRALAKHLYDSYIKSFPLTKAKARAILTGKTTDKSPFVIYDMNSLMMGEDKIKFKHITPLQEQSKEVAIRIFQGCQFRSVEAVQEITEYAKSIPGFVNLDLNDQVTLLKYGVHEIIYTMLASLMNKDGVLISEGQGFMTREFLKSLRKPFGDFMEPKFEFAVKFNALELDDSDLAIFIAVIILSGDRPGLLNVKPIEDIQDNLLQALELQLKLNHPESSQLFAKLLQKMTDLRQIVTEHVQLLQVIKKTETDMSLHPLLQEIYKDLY
EXPERIMENTAL_DETAILS: TR-FRET Assay to Measure Co-R Peptide Recruitment to PPARγ
Format: biochemical
PARTICULARS: Co-R peptide (SMRT-ID2) recruitment; top final concentration 20 μM; read-out: TR-FRET i-Ag; AC50
Mark each entry t if its AC50 sits below 90 nM, and f for all others.

Lab note: confirm whether the reported AC50 for this compound is below 90 nM, equality not counting. compound: Cc1nccc(-c2cc(C(=O)N3[C@@H]4CC[C@H]3C[C@H](C(=O)N[C@H]3CC[C@@](O)(C(F)(F)F)CC3)C4)n[nH]2)c1C
f

Lab note: confirm whether the reported AC50 for this compound is below 90 nM, equality not counting. compound: COc1cc(-c2cc(C(=O)N3[C@@H]4CC[C@H]3C[C@H](C(=O)NCc3ccc5[nH]nc(F)c5c3)C4)n[nH]2)c(F)cn1
t

Lab note: confirm whether the reported AC50 for this compound is below 90 nM, equality not counting. compound: COc1cc(-c2cc(C(=O)N3CCC(C(=O)NCC45CC(CCO4)C5)CC3)n[nH]2)c(Cl)cn1
f

Lab note: confirm whether the reported AC50 for this compound is below 90 nM, equality not counting. compound: COc1cc(-c2cc(C(=O)N3CC[C@H](C(=O)NC4CCC(C(F)(F)F)C(O)C4)CC34CC4)n[nH]2)c(F)cn1 (single isomer, unassigned) [Example 501-A]
t

Lab note: confirm whether the reported AC50 for this compound is below 90 nM, equality not counting. compound: COc1cc(-c2cc(C(=O)N3CCC(C(=O)NCC4CCc5[nH]ncc5C4)CC34CC4)n[nH]2)c(F)cn1 (single isomer, unassigned) [Example 341-B]
t
